- EXPERIMENTAL SYSTEM: human TLR7 (Homo sapiens, UniProt Q9NYK1)
- Construct: expressed in transfected cells; host or cells: HEK293
- Sequence (Q9NYK1 27-1049): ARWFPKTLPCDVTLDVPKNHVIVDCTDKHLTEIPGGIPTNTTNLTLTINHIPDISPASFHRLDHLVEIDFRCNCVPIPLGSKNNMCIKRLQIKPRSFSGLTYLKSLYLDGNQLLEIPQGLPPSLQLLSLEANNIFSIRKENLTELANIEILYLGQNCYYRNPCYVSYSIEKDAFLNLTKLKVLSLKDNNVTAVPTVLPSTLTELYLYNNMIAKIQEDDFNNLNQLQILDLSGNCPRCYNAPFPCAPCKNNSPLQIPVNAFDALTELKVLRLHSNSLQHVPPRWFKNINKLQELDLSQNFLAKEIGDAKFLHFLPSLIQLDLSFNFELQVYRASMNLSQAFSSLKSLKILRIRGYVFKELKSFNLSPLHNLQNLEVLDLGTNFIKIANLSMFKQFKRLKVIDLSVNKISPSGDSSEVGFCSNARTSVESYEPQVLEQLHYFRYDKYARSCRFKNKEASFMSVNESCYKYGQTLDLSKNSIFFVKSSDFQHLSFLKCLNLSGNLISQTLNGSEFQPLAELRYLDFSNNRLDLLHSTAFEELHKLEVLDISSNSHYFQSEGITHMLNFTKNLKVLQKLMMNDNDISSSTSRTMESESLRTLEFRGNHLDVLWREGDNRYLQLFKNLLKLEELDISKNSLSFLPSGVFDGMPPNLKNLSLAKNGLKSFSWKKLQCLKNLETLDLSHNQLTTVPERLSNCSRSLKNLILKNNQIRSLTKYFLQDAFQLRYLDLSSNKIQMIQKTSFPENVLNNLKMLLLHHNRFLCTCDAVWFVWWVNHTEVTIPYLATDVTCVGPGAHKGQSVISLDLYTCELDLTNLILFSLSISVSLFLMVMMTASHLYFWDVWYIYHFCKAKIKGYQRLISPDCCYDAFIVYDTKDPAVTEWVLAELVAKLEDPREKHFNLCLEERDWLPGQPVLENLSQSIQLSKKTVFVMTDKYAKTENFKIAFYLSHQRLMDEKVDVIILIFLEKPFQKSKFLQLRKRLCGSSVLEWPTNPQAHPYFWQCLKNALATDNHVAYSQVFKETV
- METHOD NOTES: TLR7 wild type NFκB-luc cellular reporter assay
- Assay type: cell-based
- Set-up: unit not given here
- CONDITION NOTES: HEK293 NFκB-luc reporter, 6 hours incubation; second part of table
ENDPOINT NAME: TLR7-wt (LEC)

> print(dat)
                                   compound  observed.value
1   CCCCNc1nc(N)nc2ccc(F)cc12 [Compound 38]            0.29
2  CCCCNc1nc(N)nc2cc(CO)ccc12 [Compound 18]            0.13
3  CCCC[C@@H](CO)Nc1nc(N)nc2ccc(F)cc12 [Compound 61]            0.57
4  CC[C@H](C)[C@@H](CO)Nc1nc(N)nc2ccc(F)cc12 [Compound 68]            4.57
5  CCCCNc1nc(N)nc2cccc(OCC(=O)OC)c12 [Compound 98]            0.21
6  CCCCNc1nc(N)nc2cc(C(=O)N(C)C)ccc12 [Compound 94]            0.07

====

- EXPERIMENTAL SYSTEM: human TLR8 (Homo sapiens)
- Construct: expressed in transfected cells; host or cells: HEK293
- METHOD NOTES: TLR8 wild type NFκB-luc cellular reporter assay
- Assay type: cell-based
- Design: unit not given here
- CONDITION NOTES: HEK293 NFκB-luc reporter, 6 hours incubation
Recorded measurements of TLR8-wt_LEC, one per entry
ENDPOINT NAME: TLR8-wt_LEC

> print(dat)
                                smiles.data        experimental.system  endpoint.name  observed.value
1                    CCCCNc1nc(N)nc2ccccc12  human TLR8 (Homo sapiens)    TLR8-wt_LEC             0.1
2  CC[C@H](C)[C@@H](CO)Nc1nc(N)nc2cc(OC)c(OC)cc12  human TLR8 (Homo sapiens)    TLR8-wt_LEC            13.8
3            CCCCNc1nc(N)nc2cc(OC)c(OC)cc12  human TLR8 (Homo sapiens)    TLR8-wt_LEC             1.1
4           CCCCCNc1nc(N)nc2cc(OC)c(OC)cc12  human TLR8 (Homo sapiens)    TLR8-wt_LEC             1.5
5  CCCC[C@@H](CO)Nc1nc(N)nc2cc(OC)c(OC)cc12  human TLR8 (Homo sapiens)    TLR8-wt_LEC             2.6
6  CCC[C@@H](CCO)Nc1nc(N)nc2cc(OC)c(OC)cc12  human TLR8 (Homo sapiens)    TLR8-wt_LEC             6.7
7  CCCC[C@@H](CCO)Nc1nc(N)nc2cc(OC)c(OC)cc12  human TLR8 (Homo sapiens)    TLR8-wt_LEC             5.5
8   CCC[C@@H](CO)Nc1nc(N)nc2cc(OC)c(OC)cc12  human TLR8 (Homo sapiens)    TLR8-wt_LEC             4.4

====

- EXPERIMENTAL SYSTEM: human TLR8 (Homo sapiens)
- Construct: expressed in transfected cells; host or cells: HEK293
- METHOD NOTES: TLR8 wild type NFκB-luc cellular reporter assay
- Type: cell-based
- Set-up: unit not given here
- CONDITION NOTES: HEK293 NFκB-luc reporter, 6 hours incubation; second part of table
ENDPOINT NAME: TLR8-wt (LEC)

> print(dat)
                                    compound  endpoint.name  result.modifier  observed.value
 1  CCCCNc1nc(N)nc2cc(Cl)c3c(c12)OCCO3 [Compound 28]  TLR8-wt (LEC)                =            0.88
 2  CCC[C@@H](CCO)Nc1nc(N)nc2cc(F)ccc12 [Compound 64]  TLR8-wt (LEC)                =            0.03
 3  CCCCNc1nc(N)nc2cc(OC)ccc12 [Compound 39]  TLR8-wt (LEC)                =            0.31
 4  CCC[C@@H](CO)Nc1nc(N)nc2cc(Cl)ccc12 [Compound 70]  TLR8-wt (LEC)                =            0.01
 5   CCCCNc1nc(N)nc2c(F)cccc12 [Compound 37]  TLR8-wt (LEC)                =            0.25
 6  CCCCNc1nc(N)nc2cccc(CCc3cccc(OC)c3)c12 [Compound 97]  TLR8-wt (LEC)                =            0.83
 7  CCC[C@@H](CCO)Nc1nc(N)nc2ccc(Oc3ccc(C(F)(F)F)cc3Cl)cc12 [Compound 27]  TLR8-wt (LEC)                >              25
 8  CCCC[C@@H](CO)Nc1nc(N)nc2ccc(C)cc12 [Compound 51]  TLR8-wt (LEC)                =            0.04
 9  CCCCNc1nc(N)nc2cccc(CCc3ccccc3)c12 [Compound 32]  TLR8-wt (LEC)                =            0.47
10  CCC[C@@H](CO)Nc1nc(N)nc2c(F)cccc12 [Compound 47]  TLR8-wt (LEC)                =            0.03
11  CCCCNc1nc(N)nc2ccc(CO)cc12 [Compound 24]  TLR8-wt (LEC)                =            0.22
12  CC[C@H](C)[C@@H](CO)Nc1nc(N)nc2ccc(OC)cc12 [Compound 80]  TLR8-wt (LEC)                =            4.10
13  CCCC[C@@H](CO)Nc1nc(N)nc2ccc(OC)cc12 [Compound 77]  TLR8-wt (LEC)                =            0.62
14  CCC[C@@H](CCO)Nc1nc(N)nc2ccc(C)cc12 [Compound 54]  TLR8-wt (LEC)                =            0.43
15  CCCCNc1nc(N)nc2cccc(OC(C)C)c12 [Compound 31]  TLR8-wt (LEC)                =            0.24
16   CCCCNc1nc(N)nc2cccc(OC)c12 [Compound 9]  TLR8-wt (LEC)                =            0.13
17  CCC[C@@H](CCO)Nc1nc(N)nc2ccc(Oc3ccc(C(F)(F)F)cc3)cc12 [Compound 29]  TLR8-wt (LEC)                >              25
18  CC[C@H](C)[C@@H](CO)Nc1nc(N)nc2c(F)cccc12 [Compound 67]  TLR8-wt (LEC)                =            0.11
19  CCCCNc1nc(N)nc2cccc(OCC(=O)OC)c12 [Compound 98]  TLR8-wt (LEC)                =            0.31
20  CCCC[C@@H](CCO)Nc1nc(N)nc2c(F)cccc12 [Compound 81]  TLR8-wt (LEC)                =            0.16
21  CCC[C@@H](CO)Nc1nc(N)nc2ccc(F)cc12 [Compound 49]  TLR8-wt (LEC)                =            0.03

====

- EXPERIMENTAL SYSTEM: human TLR8 (Homo sapiens)
- Construct: expressed in transfected cells; host or cells: HEK293
- Sequence (Q9NR97 27-1041): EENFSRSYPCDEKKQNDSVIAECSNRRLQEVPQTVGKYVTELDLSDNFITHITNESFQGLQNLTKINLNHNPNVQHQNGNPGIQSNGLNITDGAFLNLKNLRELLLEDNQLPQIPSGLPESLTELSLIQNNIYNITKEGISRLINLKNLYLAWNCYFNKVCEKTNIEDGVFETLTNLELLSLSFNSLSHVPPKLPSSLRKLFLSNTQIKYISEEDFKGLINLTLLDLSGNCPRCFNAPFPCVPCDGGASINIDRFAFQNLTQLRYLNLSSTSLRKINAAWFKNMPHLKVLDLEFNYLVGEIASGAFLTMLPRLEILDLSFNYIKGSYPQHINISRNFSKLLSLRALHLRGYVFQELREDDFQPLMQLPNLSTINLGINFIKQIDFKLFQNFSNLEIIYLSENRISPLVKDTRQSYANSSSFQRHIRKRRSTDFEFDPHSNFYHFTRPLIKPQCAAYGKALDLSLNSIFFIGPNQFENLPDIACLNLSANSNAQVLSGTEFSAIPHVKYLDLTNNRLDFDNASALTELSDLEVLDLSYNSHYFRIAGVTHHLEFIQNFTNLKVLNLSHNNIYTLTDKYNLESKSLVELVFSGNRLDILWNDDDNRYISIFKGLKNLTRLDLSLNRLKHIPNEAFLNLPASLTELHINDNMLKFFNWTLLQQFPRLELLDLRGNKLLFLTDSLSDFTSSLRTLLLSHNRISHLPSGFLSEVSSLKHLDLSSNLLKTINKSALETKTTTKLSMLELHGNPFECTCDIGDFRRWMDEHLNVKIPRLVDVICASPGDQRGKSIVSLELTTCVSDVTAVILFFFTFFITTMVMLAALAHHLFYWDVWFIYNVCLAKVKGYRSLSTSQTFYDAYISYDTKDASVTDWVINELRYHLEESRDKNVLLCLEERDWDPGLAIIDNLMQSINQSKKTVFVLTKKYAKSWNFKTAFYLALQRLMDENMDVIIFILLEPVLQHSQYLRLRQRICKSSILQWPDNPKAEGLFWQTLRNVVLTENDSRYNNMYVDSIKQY
- METHOD NOTES: TLR8 wild type NFκB-luc cellular reporter assay
- Assay type: cell-based
- Set-up: unit not given here
- CONDITION NOTES: HEK293 NFκB-luc reporter, 6 hours incubation; second part of table
Use T when the recorded TLR8-wt (LEC) is no lower than 0.1; use F when it is lower.

> print(dat)
                                 smiles.data  group.label
 1    CCCCNc1nc(N)nc2cccc(CCc3ccc(OC)cc3)c12            T
 2       CCC[C@@H](CO)Nc1nc(N)nc2ccc(CO)cc12            T
 3        CCC[C@@H](CO)Nc1nc(N)nc2cccc(F)c12            F
 4        CCC[C@@H](CO)Nc1nc(N)nc2cc(F)ccc12            F
 5     CCCCNc1nc(N)nc2cc(C(=O)NCCN(C)C)ccc12            T
 6      CCC[C@@H](CCO)Nc1nc(N)nc2ccc(CC)cc12            T
 7        CCCCNC(=O)c1cccc2nc(N)nc(NCCCC)c12            T
 8      CCCC[C@@H](CO)Nc1nc(N)nc2cc(OC)ccc12            F
 9     CCCC[C@@H](CCO)Nc1nc(N)nc2cc(OC)ccc12            T
10       CCC[C@@H](CO)Nc1nc(N)nc2cc(CO)ccc12            T
11      CCCC[C@@H](CCO)Nc1nc(N)nc2ccc(F)cc12            T
12       CCCC[C@@H](CO)Nc1nc(N)nc2cc(F)ccc12            F
13        CCC[C@@H](CO)Nc1nc(N)nc2ccc(C)cc12            F
14   CCCCNc1nc(N)nc2cc(C(=O)NCc3ccccc3)ccc12            T
15  CCC[C@@H](CO)Nc1nc(N)nc2cccc(-c3ccccc3)c12            T
16           CCCCNc1nc(N)nc2cc(C(=O)OC)ccc12            T
17       CCC[C@@H](CCO)Nc1nc(N)nc2cc(C)ccc12            F
18               CCCCCNc1nc(N)nc2ccc(Br)cc12            T
19       CCCC[C@@H](CO)Nc1nc(N)nc2ccc(F)cc12            F
20     CCCC[C@@H](CCO)Nc1nc(N)nc2ccc(OC)cc12            T
